assay: Oral bioavailability in Beagle dog at 0.5 mg/kg measured upto 24 hrs by LC-MS/MS analysis
Type: ADME, organism-based, Canis lupus familiaris
condition set: in vivo
quantity: bioavailability (%)

Ask | Endpoint output: bioavailability of Cn1cc(-n2ncc3cc(Cl)c(C4CCN(C5COC5)CC4)cc32)cn1 . Value?
Reply | 59

Ask | Endpoint output: bioavailability of CC1(N2CCN(c3cc4c(cnn4-c4cnn(-c5ncc(F)cn5)c4)cc3Cl)CC2)COC1 . Value?
Reply | 47

###

assay: AUC in rat at 100 mg/kg, po BID
Type: ADME, organism-based
condition set: in vivo
quantity: AUC (µM·h)
Report as a plain number; the unit µM·h is understood.

Ask | Endpoint output: AUC of C[C@@]1(N2CCN(c3cc4c(cnn4-c4cnn(C56CC(C5)C6)c4)cc3Cl)CC2)COC[C@@H]1O . Value?
Reply | 101

###

assay: Oral bioavailability in Wistar Han rat at 10 mg/kg measured upto 24 hrs by LC-MS/MS analysis
Assay type: ADME, organism-based
condition set: in vivo
quantity: bioavailability (%)
Report as a plain number; the unit % is understood.

Ask | Endpoint output: bioavailability of C[C@@]1(N2CCN(c3cc4c(cnn4-c4cnn(C56CC(C5)C6)c4)cc3Cl)CC2)COC[C@@H]1O . Value?
Reply | 48

###

assay: Mean residence time in Wistar Han rat at 0.1 mg/kg, iv administered as cassette dosing measured upto 24 hrs by LC-MS/MS analysis
Assay type: ADME, organism-based
condition set: in vivo
quantity: MRT (h)

[I] CCn1cc(-n2ncc3cc(Cl)c(C4CCN(C5(C)COC5)CC4)cc32)cn1
[II] CC1(N2CCN(c3cc4c(cnn4-c4cnn(C56CC(C(F)F)(C5)C6)c4)cc3Cl)CC2)COC1
Ask | Smaller MRT value? Options are I and II // return label of chosen record
Reply | II

[I] CO[C@H]1C[C@H](n2cc(-n3ncc4cc(Cl)c(C5CCN(C6(C)COC6)CC5)cc43)cn2)C1
[II] C[C@@]1(N2CCN(c3cc4c(cnn4-c4cnn(C5CC5)c4)cc3Cl)CC2)COC[C@@H]1O
Ask | Smaller MRT value? Options are I and II // return label of chosen record
Reply | II
(II: 2.5 h, I: 4.1 h)

[a] CC1(N2CCC(c3cc4c(cnn4-c4cnn(C(F)F)c4)cc3Cl)CC2)COC1
[b] COCC12CC(n3cc(-n4ncc5cc(Cl)c(N6CCN(C7(C)COC7)CC6)cc54)cn3)(C1)C2
Ask | Smaller MRT value? Options are a and b // return label of chosen record
Reply | b

###

assay: Mean residence time in Wistar Han rat at 0.1 mg/kg, iv administered as cassette dosing measured upto 24 hrs by LC-MS/MS analysis
Assay type: ADME, organism-based
condition set: in vivo
quantity: MRT (h)

Answered examples (5):
Ask | Endpoint output: MRT of CC1(N2CCC(c3cc4c(cnn4-c4cnn(-c5ncc(F)cn5)c4)cc3Cl)CC2)COC1 . Value?
Reply | 3.3

Ask | Endpoint output: MRT of Cc1cc(-n2ncc3ccc([C@]4(C#N)CC45CC5)cc32)nc(C)n1 . Value?
Reply | 1

Ask | Endpoint output: MRT of Cc1nc(-n2ncc3ccc([C@]4(C#N)CC45CC5)cc32)cs1 . Value?
Reply | 0.8

Ask | Endpoint output: MRT of CC1(N2CCN(c3cc4c(cnn4-c4cnn(C56CC(C5)C6)c4)cc3Cl)CC2)COC1 . Value?
Reply | 3.4

Ask | Endpoint output: MRT of Cn1ccc(-n2ncc3ccc([C@]4(C#N)CC45CC5)cc32)n1 . Value?
Reply | 0.8

[A] CC1(N2CCN(c3cc4c(cnn4-c4cnn(C56CC(C#N)(C5)C6)c4)cc3Cl)CC2)COC1
[B] Cn1ccc(-n2ncc3cc(Cl)c(C4CCN(C5COC5)CC4)cc32)n1
Ask | Smaller MRT value? Options are A and B // return label of chosen record
Reply | B
(B: 1.5 h, A: 2.9 h)

[a] CC1(N2CCN(c3cc4c(cnn4-c4cnn(C5CC5)c4)cc3Cl)CC2)CCOC1 (stereo not given)
[b] CO[C@@H]1CCN(c2cc(-n3ncc4ccc([C@]5(C)CC56CC6)cc43)ncn2)C1
[c] Cn1cc(-n2ncc3cc(Cl)c(C4CCN(C5COC5)CC4)cc32)cn1
Ask | Rank the 3 compounds: largest MRT first, smallest last. Give the labels in the order specified.
Reply | a, c, b

###

assay: Lipophilicity, logD of compound at pH 7 by shake flask based HPLC method
Format: physicochemical
condition set: buffer
quantity: logD

Ask | Endpoint output: logD of CCn1cc(-n2ncc3cc(Cl)c(C4CCN(C5(C)COC5)CC4)cc32)cn1 . Value?
Reply | 3.2

Ask | Endpoint output: logD of CC1(N2CCC(c3cc4c(cnn4-c4cnn(-c5ncc(F)cn5)c4)cc3Cl)CC2)COC1 . Value?
Reply | 3.3

Ask | Endpoint output: logD of CC1(N2CCC(c3cc4c(cnn4-c4cnn(C5CC5)c4)cc3Cl)CC2)COC1 . Value?
Reply | 3.4

Ask | Endpoint output: logD of CC1(N2CCC(c3cc4c(cnn4-c4cnn(C(F)F)c4)cc3Cl)CC2)COC1 . Value?
Reply | 3.7

Ask | Endpoint output: logD of CC1(N2CCN(c3cc4c(cnn4-c4cnn(-c5ncc(F)cn5)c4)cc3Cl)CC2)COC1 . Value?
Reply | 2.8

Ask | Endpoint output: logD of Cn1cc(-n2ncc3cc(Cl)c(C4CCN(C5(C)COC5)CC4)cc32)cn1 . Value?
Reply | 2.8

Ask | Endpoint output: logD of CO[C@H]1C[C@H](n2cc(-n3ncc4cc(Cl)c(C5CCN(C6(C)COC6)CC5)cc43)cn2)C1 . Value?
Reply | 3.5

###

assay: Ratio of unbound CSF to plasma drug concentration in rhesus monkey
Type: ADME, Macaca mulatta
quantity: Kp uu
Please state the value as a number alone, without comment.

Ask | Endpoint output: Kp uu of Cn1cc(-n2ncc3cc(Cl)c(C4CCN(C5COC5)CC4)cc32)cn1 . Value?
Reply | 1

###

assay: Ratio of unbound brain to plasma drug concentration in Wistar Han rat
Format: ADME, cell-free
condition set: read-out: K(p,uu,brain)
quantity: Kp uu

Answered examples (2):
Ask | Endpoint output: Kp uu of C[C@@]1(N2CCN(c3cc4c(cnn4-c4cnn(C56CC(C5)C6)c4)cc3Cl)CC2)COC[C@@H]1O . Value?
Reply | 0.4

Ask | Endpoint output: Kp uu of Cc1nc(-n2ncc3ccc([C@]4(C#N)CC45CC5)cc32)cs1 . Value?
Reply | 0.5

[1] Cn1cc(-n2ncc3cc(Cl)c(C4CCN(C5COC5)CC4)cc32)cn1
[2] Cn1ccc(-n2ncc3ccc([C@]4(C#N)CC45CC5)cc32)n1
[3] Cc1cc(-n2ncc3ccc([C@]4(C#N)CC45CC5)cc32)nc(C)n1
Ask | Please order the records by their reported Kp uu, lowest number first. Give the labels in the order specified.
Reply | 3, 1, 2
(3: 0.19, 1: 0.4, 2: 1)

###

assay: Mean residence time in Beagle dog at 0.25 mg/kg, iv measured upto 24 hrs by LC-MS/MS analysis
Assay type: ADME, organism-based, Canis lupus familiaris
condition set: in vivo
quantity: MRT (h)

Ask | Endpoint output: MRT of CC1(N2CCN(c3cc4c(cnn4-c4cnn(-c5ncc(F)cn5)c4)cc3Cl)CC2)COC1 . Value?
Reply | 17

[I] C[C@@]1(N2CCN(c3cc4c(cnn4-c4cnn(C56CC(C5)C6)c4)cc3Cl)CC2)COC[C@@H]1O
[II] Cn1cc(-n2ncc3cc(Cl)c(C4CCN(C5COC5)CC4)cc32)cn1
Ask | In the pair I and II , the larger recorded MRT belongs to which? // return label of chosen record
Reply | I
(I: 12 h, II: 2.1 h)

###

assay: Ratio of unbound brain to plasma drug concentration in rhesus monkey
Format: ADME, cell-free, Macaca mulatta
condition set: read-out: K(p,uu,brain)
quantity: Kp uu
Please state the value as a number alone, without comment.

Ask | Endpoint output: Kp uu of Cn1cc(-n2ncc3cc(Cl)c(C4CCN(C5COC5)CC4)cc32)cn1 . Value?
Reply | 0.9

###

assay: Mean residence time in Wistar Han rat at 0.1 mg/kg, iv administered as cassette dosing measured upto 24 hrs by LC-MS/MS analysis
Assay type: ADME, organism-based
condition set: in vivo
quantity: MRT (h)

Ask | Endpoint output: MRT of CC1(N2CCN(c3cc4c(cnn4-c4cnn(-c5ncc(F)cn5)c4)cc3Cl)CC2)COC1 . Value?
Reply | 4.5

Ask | Endpoint output: MRT of Cn1cc(-n2ncc3cc(Cl)c(C4CCN(C5(C)COC5)CC4)cc32)cn1 . Value?
Reply | 3.4

Ask | Endpoint output: MRT of CC1(N2CCN(c3cc4c(cnn4-c4cnn(C5CC5)c4)cc3Cl)CC2)COC1 . Value?
Reply | 2.8

Ask | Endpoint output: MRT of COC12CC(n3cc(-n4ncc5cc(Cl)c(N6CCN(C7(C)COC7)CC6)cc54)cn3)(C1)C2 . Value?
Reply | 3.2

Ask | Endpoint output: MRT of CC1(N2CCC(c3cc4c(cnn4-c4cnn(C5CC5)c4)cc3Cl)CC2)COC1 . Value?
Reply | 3.6
